Each recorded value in this set is attributed to paper PMC5377825.

Target: OleTJE (CYP152L1) (Jeotgalicoccus sp. ATCC 8456, UniProt E9NSU2, F79W)
Construct: gene JEM45_03820; full length, codon-optimized gene in modified pET15b, N-terminal polyhistidine tag with TEV site; tag kept for spectroscopy, cleaved for crystallography; expressed in E. coli C41 (DE3)
Assay: UV-visible heme spectral titration
Format: binding
Settings: read-out: Fatty acid Kd (HS) / C18:0
property-label: Kd

structure-notation | value-measured
CCCCCCCCCCCCCCCCCC(=O)O | 4.52 µM

====

Target: OleTJE (CYP152L1) (Jeotgalicoccus sp. ATCC 8456, UniProt E9NSU2, F79A)
Construct: gene JEM45_03820; full length, codon-optimized gene in modified pET15b, N-terminal polyhistidine tag with TEV site; tag kept for spectroscopy, cleaved for crystallography; expressed in E. coli C41 (DE3)
Sequence (E9NSU2 1-422 F79A): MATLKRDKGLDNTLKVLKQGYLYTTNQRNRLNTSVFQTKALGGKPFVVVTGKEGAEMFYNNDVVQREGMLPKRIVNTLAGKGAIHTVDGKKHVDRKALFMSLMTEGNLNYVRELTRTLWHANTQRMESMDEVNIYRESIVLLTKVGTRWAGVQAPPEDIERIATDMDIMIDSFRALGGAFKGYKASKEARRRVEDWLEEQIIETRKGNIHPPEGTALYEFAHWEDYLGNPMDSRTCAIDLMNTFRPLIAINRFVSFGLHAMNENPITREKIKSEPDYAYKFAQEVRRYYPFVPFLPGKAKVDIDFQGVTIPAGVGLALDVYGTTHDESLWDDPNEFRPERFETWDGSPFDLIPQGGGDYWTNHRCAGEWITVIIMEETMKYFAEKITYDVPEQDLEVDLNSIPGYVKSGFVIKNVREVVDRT
Experiment: UV-visible heme spectral titration
Type: binding
Conditions: read-out: Fatty acid Kd (HS) / C14:0
pKd: −log10 of the molar value.

structure-notation | pKd
CCCCCCCCCCCCCC(=O)O | 4.41
